Assay: RLM stability (High Activity)
Format: in vitro ADME, Sprague Dawley rats
Conditions: male, Sprague Dawley, rat, liver microsomes, pH 7.4, Condition 2 (High Activity), 1 μM, 1.0 mg protein/mL
Threshold check on microsomal CLint at 1 μM: at or above 40 µL/min/mg gives 1 (yes), strictly below gives 0 (no).

Prompt: Determine whether this compound has microsomal CLint at 1 μM no lower than 40 µL/min/mg: [2H]C([2H])([2H])N[C@]1(c2ccccc2)CCCCC1=O [Compound 88S]
Completion: 0 (no)

Prompt: Can CNC1(c2ccccc2Cl)CCCCC1=O (racemic) [rac-ketamine, racemic ketamine, reference compound] be said to have microsomal CLint at 1 μM at or above 40 µL/min/mg?
Completion: 1 (yes)

Prompt: Is the recorded value of microsomal CLint at 1 μM equal to or greater than 40 µL/min/mg for this compound? CN[C@]1(c2cccc(F)c2)CCCCC1=O [Compound 19S]
Completion: 0 (no)

Prompt: Please tell me: is the compound CN[C@@]1(c2cccc(F)c2)CCCCC1=O [Compound 19R] at or over 40 µL/min/mg in terms of microsomal CLint at 1 μM?
Completion: 1 (yes)

Prompt: Form field: microsomal CLint at 1 μM at least 40 µL/min/mg? Entry: CN[C@@]1(c2ccccc2)CCCCC1=O [Compound 14R]
Completion: 0 (no)

Prompt: Check if microsomal CLint at 1 μM >= 40 µL/min/mg (inclusive). Item: N[C@]1(c2ccccc2)CCCCC1=O [Compound 11S, (S)-2-amino-2-phenyl-cyclohexan-1-one]
Completion: 0 (no)

Prompt: Check the entry CN[C@]1(c2ccccc2)CCCCC1=O [Compound 14S] : does microsomal CLint at 1 μM equal or exceed 40 µL/min/mg?
Completion: 0 (no)
